I'd appreciate it if you could supply TGI values for the items below.
system: SNB-19 CNS; assay: NCI tumour cell line growth inhibition, 48 h

**Q:** Which TGI reading was recorded for the compound Cc1ccc(Nc2nc(N)nc3c2ncn3C2OC(CO)C(O)C2O)cc1 (stereo not drawn) ?
**A:** > 100 µM

**Q:** Which TGI reading was recorded for the compound CCn1c(O)c(C=N)c(=O)n(CC)c1=O ?
**A:** > 100 µM

**Q:** Which TGI reading was recorded for the compound COC(=O)C1[C@@H](C(=O)OC)C12C=Cc1ccccc1C=C2 (stereo partly drawn) ?
**A:** > 100 µM

**Q:** Which TGI reading was recorded for the compound NC(=S)N/N=C(\C(=O)Nc1cccc([N+](=O)[O-])c1)c1nc2ccc([N+](=O)[O-])cc2[nH]c1=O ?
**A:** > 100 µM

**Q:** Which TGI reading was recorded for the compound O=c1c2cccnc2cc(-c2ccccc2)n1CCO ?
**A:** > 100 µM

**Q:** Which TGI reading was recorded for the compound CC1(C)CCC[C@@]2(C)C1CC[C@H]1CC(O)C3(C)CCC12C3 (stereo partly drawn) ?
**A:** 31.9 µM

**Q:** Which TGI reading was recorded for the compound COc1ccc(/C=C2\CCCCCC2=O)cc1 ?
**A:** > 100 µM

**Q:** Which TGI reading was recorded for the compound Nc1cn(Cc2ccccc2)c2nc(/C=C3/C=CC=CC3=O)c(O)n12 ?
**A:** > 100 µM

**Q:** Which TGI reading was recorded for the compound COc1ccc2cc(/C=N\NC(=O)Nc3cccc4ccccc34)ccc2c1 ?
**A:** 53.5 µM

**Q:** Which TGI reading was recorded for the compound C[C@]12CC[C@H](OCCC#N)CC1=CC[C@@H]1C2CC[C@]2(C)/C(=N/OCCC#N)CCC12 (stereo partly drawn) ?
**A:** 97.9 µM

**Q:** Which TGI reading was recorded for the compound COc1cc(C(=O)C/C(CCC(=O)Nc2ccc(Cl)cc2C)=N/NC(=O)C(N)=O)ccc1O ?
**A:** > 100 µM

**Q:** Which TGI reading was recorded for the compound COc1c(Cl)c2c(c(OC)c1OC)-c1ccc(SC)c(=O)cc1[C@@H](NC(=O)OCC(F)(F)F)CC2 ?
**A:** > 100 µM

**Q:** Which TGI reading was recorded for the compound COc1cc(C2c3cc4c(cc3OC(Nc3ccccc3)C2C)OCO4)cc(OC)c1OC (stereo not drawn) ?
**A:** > 100 µM

**Q:** Which TGI reading was recorded for the compound COc1cc2c(cc1OCCCCCCN1CCN(c3ncnc4ccccc34)CC1)N=CC1CCCN1C2=O (stereo not drawn) ?
**A:** 3.54 µM

**Q:** Which TGI reading was recorded for the compound CCCCCCCCCCCCC(O)C1CCC(C(O)CCCCCCC(O)CCCCCCCC2=CC(C)OC2=O)O1 (stereo not drawn) ?
**A:** > 100 µM

**Q:** Which TGI reading was recorded for the compound c1ccc(Nc2nnc(Cn3ccc4ccccc43)s2)cc1 ?
**A:** > 100 µM

**Q:** Which TGI reading was recorded for the compound O=S(=O)(c1ccc(N=C2NN=C(c3c[nH]c4ccccc34)CS2)cc1)N1CCOCC1 ?
**A:** > 100 µM

**Q:** Which TGI reading was recorded for the compound COc1ccc(C(=O)OC2C=COC(C)C2OC(=O)c2ccc(OC)cc2)cc1 (stereo not drawn) ?
**A:** > 100 µM

**Q:** Which TGI reading was recorded for the compound NC(=N\N=C/c1cccc([N+](=O)[O-])c1)/C(N)=N\N=C/c1cccc([N+](=O)[O-])c1 ?
**A:** > 100 µM

**Q:** Which TGI reading was recorded for the compound N=C(N)c1csc([C@@H]2O[C@H](CO)[C@@H](O)[C@H]2O)n1 ?
**A:** > 100 µM

**Q:** Which TGI reading was recorded for the compound N#CC(Nc1ccccc1)c1ccc(C(C#N)Nc2ccccc2)cc1 (stereo not drawn) ?
**A:** > 100 µM

**Q:** Which TGI reading was recorded for the compound COc1ccc2c(c1)CCc1[nH]c3ccccc3c1CCCC2 ?
**A:** > 10 µM

**Q:** Which TGI reading was recorded for the compound CC1(C)CC(n2cnc(-c3ccc(F)cc3)c2-c2ccnc(N)n2)CC(C)(C)N1 ?
**A:** > 25 µM

**Q:** Which TGI reading was recorded for the compound C#C[C@]1(O)CCC2C3CCc4cc(Oc5nc(F)nc(-c6c7cc8ccccc8cc7c7n6CCS7)n5)ccc4C3CCC21C (stereo partly drawn) ?
**A:** > 100 µM

**Q:** Which TGI reading was recorded for the compound Cc1ccc(-c2nc(N)nc3c2nnn3Cc2cccc(CO[C@H]3CCOC3)n2)o1 ?
**A:** > 100 µM

**Q:** Which TGI reading was recorded for the compound COC1=C(N2CC2)C(=O)c2nc3n(c2C1=O)CCC3 ?
**A:** 2.92 µM

**Q:** Which TGI reading was recorded for the compound CC(C)(C)[Si](C)(C)OCC1CCC(n2cnc3c(N)ncnc32)O1 (stereo not drawn) ?
**A:** > 100 µM

**Q:** Which TGI reading was recorded for the compound O=C(O)C1Cc2c([nH]c3ccccc23)C=N1 (stereo not drawn) ?
**A:** > 100 µM

**Q:** Which TGI reading was recorded for the compound Cn1c(NS(=O)(=O)c2ccccc2)nc2ccccc21 ?
**A:** > 100 µM

**Q:** Which TGI reading was recorded for the compound COc1cccc2c(Nc3ccc(S(=O)(=O)NC(C)=O)cc3)c3ccc([N+](=O)[O-])cc3nc12 ?
**A:** > 100 µM

**Q:** Which TGI reading was recorded for the compound O=c1oc2ccccc2nc1/C=C(\O)c1ccc([N+](=O)[O-])cc1 ?
**A:** > 100 µM

**Q:** Which TGI reading was recorded for the compound CCOP(=O)(OCC)c1ccc(=O)[nH]c1-c1cccs1 ?
**A:** > 100 µM

**Q:** Which TGI reading was recorded for the compound COc1cc(NCc2ccc3nc(OC)c(OC)nc3c2)cc(OC)c1OC ?
**A:** > 100 µM

**Q:** Which TGI reading was recorded for the compound O=C1c2ccccc2C2(O)NC(=S)N(c3ccccc3)C12O (stereo not drawn) ?
**A:** > 100 µM

**Q:** Which TGI reading was recorded for the compound NC(CCP(=O)(O)CCC1C=CC=CC1)C(=O)O (stereo not drawn) ?
**A:** > 100 µM

**Q:** Which TGI reading was recorded for the compound NC(N)=N/N=C/c1c(-c2ccc([N+](=O)[O-])cc2)nc2n1CCS2 ?
**A:** 11.4 µM

**Q:** Which TGI reading was recorded for the compound O=C(C1C(c2ccccc2)N1C(c1ccccc1)c1ccccc1)C1C(c2ccccc2)N1C(c1ccccc1)c1ccccc1 (stereo not drawn) ?
**A:** > 100 µM

**Q:** Which TGI reading was recorded for the compound OC(C/C(=N\N1CCCCC1)c1cccs1)(C(F)(F)F)C(F)(F)F ?
**A:** > 10 µM

**Q:** Which TGI reading was recorded for the compound CCC1=CC2Cc3nc4cc(Cl)ccc4c(N)c3C(C1)C2 (stereo not drawn) ?
**A:** 22.7 µM

**Q:** Which TGI reading was recorded for the compound COc1cc(C=Nc2ccc(C(C)C)cc2)cc(OC)c1OC ?
**A:** > 100 µM

**Q:** Which TGI reading was recorded for the compound COc1ccc(NC(C)=O)cc1C1CCC(=O)N1 (stereo not drawn) ?
**A:** > 100 µM

**Q:** Which TGI reading was recorded for the compound O=[N+]([O-])c1ccc2[nH]ncc2c1Cl ?
**A:** > 100 µM

**Q:** Which TGI reading was recorded for the compound COc1cc2c(Oc3ccc4[nH]c(C)cc4c3F)ccnc2cc1OCC1(N)CC1 ?
**A:** 28.1 µM
